Target: T1, PDZD7 PDZ tandem (P1P2 construct; A81 to G313) (mouse)
T1 sequence (E9Q9W7 81-313, looked up): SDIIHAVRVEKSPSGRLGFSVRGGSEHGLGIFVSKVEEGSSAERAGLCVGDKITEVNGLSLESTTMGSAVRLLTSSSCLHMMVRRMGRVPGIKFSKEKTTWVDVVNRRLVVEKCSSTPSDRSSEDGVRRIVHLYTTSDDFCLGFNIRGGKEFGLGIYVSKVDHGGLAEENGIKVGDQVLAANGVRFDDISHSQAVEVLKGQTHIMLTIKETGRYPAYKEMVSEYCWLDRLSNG
Assay: other fluorescence titration; tryptophan fluorescence (excitation 295 nm) of P1P2 at 2 µM in Phosphate Buffer pH 6.6 (50 mM) on progressive addition of ADGRV1pbm peptide or the cytoplasmic domain; apparent Kd
# maps each entry to its pKd
When answering, recall that pKd equals minus log10 of the concentration in mol/L, and write that number alone.

Binder: ADGRV1 whole cytoplasmic domain (domain or fragment) HNQTCCPMKASYTVEMNGHPGPSTAFFTPGSGIPPAGEINKSTQNLINAMEEVPSDWERSSFQQTSQASPDLKTSPQNGASFPSSGGYGPGSLIADEESQEFDDLIFALKTGAGLSVSDNESGQGSQEGGTLTDSQIVELRRIPIADTHL
pKd: 5.09

Okay, now this binder:
Task: Entry VELRRIPIADTHL (ADGRV1, last 13 residues, free C-terminal carboxylate as printed (-COOH); The other ADGRV1 constructs are murine) [ADGRV1pbm peptide (last 13 residues of ADGRV1, with its PDZ binding motif)] : reported pKd = ?
Result: 5.80

meta.source: paper PMC9274004
